Published IC50 for Non-receptor tyrosine-protein kinase TYK2 (Homo sapiens), assembled from different documents, is shown next.

Give IC50 only, for "Cc1cnc2nc1Nc1cccc(c1)CCCNC(=O)c1ccc(cc1)-c1cnc(F)c(c1)N2" , using Non-receptor tyrosine-protein kinase TYK2 (Homo sapiens) data.
0.011 to 0.1 µM

System Non-receptor tyrosine-protein kinase TYK2 (Homo sapiens). Read-out IC50. Item Cc1ccc(Nc2nc(Nc3ccc4c(c3)NCC(O)CO4)ncc2C(N)=O)nc1 (centres unmarked) . Report value.
0.01 to 0.1 µM

Name the value of IC50 reported for "Cc1cnc2nc1NCCCCCNC(=O)c1ccc(cc1N)-c1cnc(F)c(c1)N2" when tested on Non-receptor tyrosine-protein kinase TYK2 (Homo sapiens).
1 to 10 µM

Determine reported IC50 for "CC#CCCn1cc(-c2nc(-c3cnn(C)c3)cc3nccn23)cn1" ; test system: Non-receptor tyrosine-protein kinase TYK2 (Homo sapiens).
0.1 to 1 µM

Determine reported IC50 for "Cc1cnc2nc1NCCCCCCC(=O)N1CCN(CC1)c1cnc(F)c(c1)N2" ; test system: Non-receptor tyrosine-protein kinase TYK2 (Homo sapiens).
1 to 10 µM

Give reported IC50 for "Nc1cc2ccc1-c1ccnc(n1)Nc1ccc(OC3CCCCC3)c(c1)COCCCCNC2=O" (Non-receptor tyrosine-protein kinase TYK2 (Homo sapiens))
1 to 10 µM

Provide IC50, recorded with Non-receptor tyrosine-protein kinase TYK2 (Homo sapiens), of "O=C(NCCC(F)(F)F)c1nn(C2CCC2)c2c1CN(c1ncnc3[nH]ccc13)CC2"
> 2 µM

Give IC50 for Cn1cc(-c2cc3nccn3c(-c3cnn(C(CC#N)C4CC4)c3)n2)cn1 (single isomer, unassigned; enantiomer 1) tested on Non-receptor tyrosine-protein kinase TYK2 (Homo sapiens).
0.01 to 0.1 µM

----------
Study the reported IC50 values for Non-receptor tyrosine-protein kinase TYK2 (Homo sapiens, UniProt P29597) given below; they originate from different publications.

Please give measured IC50 of the following entry: "CCOC(=O)Cn1cc(Nc2ncc3ccn(CC4CCSCC4)c3n2)cn1"
< 100 nM

Find the measured IC50 of "Cc1cnc2nc1Nc1cccc(c1)CCCCNC(=O)c1ccc(cc1)-c1cnc(F)c(c1)N2" and report it.
11 to 100 nM

Name the recorded IC50 of the item CCC(CC)n1cc(-c2nc(-c3cnn([C@@H]4CCC[C@H]4O)c3)cn3nccc23)cn1 (single isomer, unassigned) in your answer.
10 to 100 nM

Give reported IC50 value for "CCC(CC)n1cc(-c2nc(-c3cnn(C[C@H](C)O)c3)cn3nccc23)cn1"
10 to 100 nM

// fetch IC50 given entry "O=C(NCCC(F)(F)F)c1nn(Cc2ccncc2)c2c1CN(c1ncnc3[nH]ccc13)CC2"
> 2000 nM

Respond only with IC50 recorded for "CCC(CC)Cn1ccc2cnc(Nc3cnn(CC(=O)OC(C)C)c3)nc21"
< 100 nM

In one line, give reported IC50 of the entry "CC(C)NC(=O)c1cnn2ccc(N3CCC[C@@H]3c3cncc(F)c3)nc12" .
> 1000 nM

Given the compound "CCc1cc(O)c(F)cc1-c1cc2[nH]ncc2c(NCc2ccccc2N(CC)S(C)(=O)=O)n1" , write its reported IC50.
4.8 nM

Read the entry "CCCS(=O)(=O)N[C@H]1C[C@@H](Nc2c(-c3nc(C(=O)NC)co3)cnc3[nH]ccc23)C1" and write its reported IC50.
100 to 1000 nM

Input "CCOC(=O)Cn1cc(Nc2ncc3ccn(CC(CC)CC)c3n2)cn1" , output reported IC50.
< 100 nM

Return reported IC50. Input compound: "Cc1ccc(Cl)cc1-c1[nH]c(-c2ncnc3[nH]ccc23)cc1C(N)=O"
7 nM

State its IC50 for this compound: "Cc1cnc2nc1Nc1cccc(c1)CCCNC(=O)c1ccc(cc1C(=O)O)-c1cnc(F)c(c1)N2"
1000 to 10000 nM

Tell us which IC50 value is on record for CCC(CC)n1cc(-c2nc(-c3cnn(CC(O)CCO)c3)cn3nccc23)cn1 (stereo not shown)
10 to 100 nM

Read the entry "Cc1cnc2nc1NCCCCCNC(=O)c1ccc(c(F)c1)-c1cnc(F)c(c1)N2" and write its reported IC50.
1000 to 10000 nM

Name the recorded IC50 of the compound listed here: "Cc1cc(Nc2nc(N[C@@H]3C[C@H]4CCC[C@@H](C3)N4S(=O)(=O)c3nccn3C)nc3sccc23)n[nH]1"
3.08 nM

Consider the compound "CN(C)C/C=C/C(=O)Nc1cc(Nc2ncc(Cl)c(O[C@@H]3CO[C@H]4[C@@H]3OC[C@H]4O)n2)ccc1N1CCC(N2CCN(C)CC2)CC1" and give its recorded IC50.
278 nM

----------
Field IC50: reported value for Non-receptor tyrosine-protein kinase TYK2 (Homo sapiens); entries drawn from several documents.

Find the measured IC50 of "Cc1cc(Nc2ncc(C)c(N3CC(CC#N)(N4C[C@H](C)N(C)[C@@H](C)C4)C3)n2)sn1" and report it.
< 20 nM

Tell me its IC50 given "CN(c1ncnc2[nH]ccc12)C1CC2(C1)CN(C(=O)Nc1cccc(Cl)c1)C2" as the entry.
≥ 10000 nM

Quote IC50 reported for "Cc1cc(Nc2nc(N[C@@H]3C[C@H]4CC[C@@H](C3)N4CCC#N)nc3c(Cl)cccc23)n[nH]1" please.
1.58 nM

Indicate its recorded IC50; the compound in question is CC1CCNC(=O)c2ccc(c([N+](=O)[O-])c2)-c2ccnc(n2)Nc2ccc(OCC3CC3)c(c2)COC1 (centres unmarked)
> 10000 nM

Indicate its recorded IC50; the compound in question is NC(=O)c1cnc(Nc2ccc3c(c2)NC[C@H](O)CO3)nc1NC1CCC(O)C1 (some centres unmarked)
< 10 nM

Please give the documented IC50 of "CNC(=O)c1csc(-c2cnc3[nH]ccc3c2N[C@H]2C[C@@H](NS(=O)(=O)c3cccc(C#N)c3)C2)n1"
10 to 100 nM

Look up and report measured IC50 for this entry: "CC[C@@H](C)n1cc(-c2nc(-c3cnn(C4CCS(=O)(=O)CC4)c3)cn3nccc23)cn1"
100 to 1000 nM

Item Nc1cc2ccc1-c1ccnc(n1)Nc1ccc(OCC3CCc4ccccc43)c(c1)COCCCCNC2=O (centres unmarked) : provide IC50
1000 to 10000 nM

----------
A compilation of IC50 values for Non-receptor tyrosine-protein kinase TYK2 (Homo sapiens) from the published literature.

Report measured IC50; entry is "CCC(CC)n1cc(-c2nc(-c3cnn([C@H]4C[C@@H](C(=O)N(C)C)C4)c3)cn3nccc23)cn1"
10 to 100 nM

Quickly give me recorded IC50 for "Cc1cc(Nc2ncc(C)c(N3CC(CC#N)(NC(=O)c4ccncc4)C3)n2)sn1"
< 50 nM

Assign IC50 to the following record: "Nc1cc2ccc1-c1ccnc(n1)Nc1ccc(OCC3COC3)c(c1)COc1ccc(cc1)NC2=O"
1000 to 10000 nM

Give reported IC50 value for "C[C@@H](O)c1nc2cnc3ccoc3c2n1[C@H]1CC[C@H](CC#N)OC1"
< 10 nM

Using the record for "NC(=O)c1cnc(Nc2ccc3c(c2)NC[C@H](OCCO)CO3)nc1NC1CC1" , state its measured IC50.
< 10 nM

State its IC50: "CCCS(=O)(=O)N[C@H]1C[C@@H](Nc2c(-c3nnc(C)o3)cnc3[nH]ccc23)C1"
100 to 1000 nM

Given the compound "Cn1cc(-c2cc3nccn3c(-c3cnn(C4CCCC4)c3)n2)cn1" , write its reported IC50.
100 to 1000 nM

Could you please provide reported IC50 for CCOC(=O)C(C)n1cc(Nc2ncc3ccn(C[C@@H](CC)C(C)C)c3n2)cn1 (some centres unmarked) ? Thanks!
< 100 nM

Supply recorded IC50 for "N#CCCN1[C@@H]2CC[C@H]1C[C@H](Nc1nc(Nc3ncc(CO)s3)cc3ncccc13)C2" here.
2.3 nM

Provide IC50 value for the following compound: "Cc1cc(Nc2ncc(C)c(N3CC(CC#N)(NS(C)(=O)=O)C3)n2)sn1"
< 10 nM

Check the records and state IC50 for Nc1cc2ccc1-c1ccnc(n1)Nc1ccc(OCC3CCC(F)(F)C3)c(c1)COCCCCNC2=O (centres unmarked)
1000 to 10000 nM

State its IC50: "CN1CCN(C2CCN(c3ccc(Nc4ncc(Cl)c(O[C@@H]5CO[C@H]6[C@@H]5OC[C@H]6O)n4)cc3)CC2)CC1"
301 nM

Give the reported IC50 for this compound. "Cc1cc(Nc2nc(N[C@@H]3C[C@H]4CC[C@@H](C3)N4S(=O)(=O)N3CC(C#N)C3)nc3cc(C4CC4)ccc23)n[nH]1"
0.48 nM

Identify measured IC50 associated with "CCC(CC)n1cc(-c2nc(-c3cnn([C@@H]4CCCNC4)c3)cn3nccc23)cn1"
10 to 100 nM

Please indicate IC50 recorded for "Cc1cc(Nc2ncc(C)c(N3CC(CC#N)(N4CCC5(CC4)CC5(F)F)C3)n2)sn1"
< 10 nM

Fill in IC50 for record "NC(=O)c1cnc(Nc2ccc3c(c2)NC[C@H](O)CO3)nc1NC12CC3CC(CC(O)(C3)C1)C2"
< 10 nM

Return value of IC50 for input CCOC(C)n1cc(-c2nc(-c3cnn(C)c3)cn3nccc23)cn1 (centres unmarked) , no commentary.
1000 to 10000 nM

Item "Cn1cc(-c2cc3nccn3c(-c3ccn([C@@H](CCF)[C@@H]4CC4(F)F)c3)n2)cn1" : provide IC50
< 10 nM

Please give the documented IC50 of "CCC(CC)n1cc(-c2nc(-c3cnn(C[C@@H](CO)N(C)C)c3)cn3nccc23)cn1"
10 to 100 nM

Consider the compound "O=C(CC(=O)C(F)(F)F)Nc1cccc(-c2cnc3ccccc3n2)c1" . State its measured IC50.
> 10000 nM

Give a short answer stating reported IC50 for CCC(Cn1ccc2cnc(Nc3cnn(CC(=O)O[C@H](C)CO)c3)nc21)C(C)C (some centres unmarked) .
< 100 nM

Give the reported IC50 for this compound. "N#CCC1(n2cc(-c3nc(-c4cnn(C5COC5)c4)cc4nccn34)cn2)CN(CC(F)(F)F)C1"
< 10 nM

Give recorded IC50. "Cn1cc(-c2cc3nccn3c(-c3cnn(C4(CC#N)CN(CCC(F)(F)F)C4)c3)n2)cn1"
10 to 100 nM

Could you please provide reported IC50 for "CCc1ccc(C(F)(F)F)cc1-c1[nH]c(-c2ncnc3[nH]ccc23)cc1C(N)=O" ? Thanks!
20 nM

Read off the recorded IC50 for "O=C(NCCCC1(O)CC1)c1noc2c1CN(c1ncnc3[nH]ccc13)CC2"
> 2000 nM

Supply recorded IC50 for "CCS(=O)(=O)N(C)c1ccccc1CNc1nc(-c2cc(F)c(O)cc2CC(F)(F)F)cc2[nH]nc(C(N)=O)c12" here.
81.4 nM

Give the reported value of IC50 for this record: "CC(C)C[C@@H](C)n1cc(-c2nc(-c3cnn(C(CO)CO)c3)cn3nccc23)cn1"
100 to 1000 nM

// fetch IC50 given entry CC(C)n1cc(-c2cc3nccn3c(-c3cnn(C(CC#N)C4CC4)c3)n2)cn1 (centres unmarked)
< 10 nM

For the compound CC1CCOCc2cc(ccc2OC(C)C)Nc2nccc(n2)-c2ccc(cc2N)C(=O)NC1 (centres unmarked) , report IC50.
101 to 1000 nM

Answer with the recorded IC50 of "CCOC(=O)c1cnc2[nH]ccc2c1N[C@H]1C[C@H](NS(=O)(=O)c2cc(C#N)ccn2)C1" only.
100 to 1000 nM

Look up and state reported IC50 for CCC(CC)n1cc(-c2nc(-c3cnn(CC(O)CC(F)(F)F)c3)cn3nccc23)cn1 (centres unmarked)
10 to 100 nM

Look up and state reported IC50 for "Cn1cc(-c2cn3nccc3c(-c3cnn(C4(C)CCCC4)c3)n2)cn1"
100 to 1000 nM
